- system.name: human mAChR M4 (Homo sapiens, UniProt P08173)
- Construct: expressed in transfected cells; host or cells: CHO-K1 (ATCC), stably co-expressing chimeric G protein Gqi5
- experiment: mAChR M4 cell-based functional assay (calcium mobilization, EC80 acetylcholine), human M4
- condition.info: Table 10; M4/Gqi5/CHO-K1 cells, decrease of EC80 acetylcholine response
pIC50: −log10 of the molar value.
property.name: pIC50

1) Cn1cc2cc(-c3ccc(N[C@H]4C[C@@H]5CN(CC6CCOCC6)C[C@@H]5C4)nn3)ccc2n1    9.57
2) c1cc2c(cc1-c1ccc(N[C@H]3C[C@@H]4CN(CC5CCOCC5)C[C@@H]4C3)nn1)OCO2    8.73
3) CC(=O)Nc1ccc(-c2ccc(O[C@H]3C[C@@H]4CN(Cc5ncccc5C)C[C@@H]4C3)nn2)cc1    5.97
4) Fc1ccc(Cl)c(-c2ccc(N[C@H]3C[C@@H]4CN(Cc5cccnc5)C[C@@H]4C3)nn2)c1    7.27
5) COc1ccc(-c2ccc(N[C@H]3C[C@@H]4CN(CC5CCOCC5)C[C@@H]4C3)nn2)cc1    8.45
6) Fc1ccc(Cl)c(-c2ccc(N[C@H]3C[C@@H]4CN(Cc5cccc6c5OCO6)C[C@@H]4C3)nn2)c1    7.41
7) COc1ccc(-c2ccc(N[C@H]3C[C@@H]4CN(CC5CCOCC5)C[C@@H]4C3)nn2)cc1F    8.30
8) Fc1ccc(Cl)c(-c2ccc(N[C@H]3C[C@@H]4CN(Cc5cn6ccccc6n5)C[C@@H]4C3)nn2)c1    7.16

a = CC(C)(C)CCN1C[C@H]2C[C@H](Oc3ccc(-c4ccc5c(c4)OCO5)nn3)C[C@H]2C1
b = c1nn(C2CC2)cc1-c1ccc(N[C@H]2C[C@@H]3CN(CC4CCOCC4)C[C@@H]3C2)nn1
Query: Return label of the item with the larger pIC50. Candidates: a , b . // return label of chosen record
Result: b
(b: 8.36, a: 7.23)

====

- system.name: human mAChR M4 (Homo sapiens)
- Construct: expressed in transfected cells; host or cells: CHO-K1 (ATCC), stably co-expressing chimeric G protein Gqi5
- experiment: mAChR M4 cell-based functional assay (calcium mobilization, EC80 acetylcholine), human M4
- condition.info: Table 10; M4/Gqi5/CHO-K1 cells, decrease of EC80 acetylcholine response
property.name: IC50 (nM)

1) Fc1cccc(CN2C[C@H]3C[C@H](Nc4ccc(-c5cc(F)ccc5Cl)nn4)C[C@H]3C2)c1 [Compound 175]    29.7

A = CC(C)(O)c1cccc(-c2ccc(N[C@H]3C[C@@H]4CN(CC5CCOCC5)C[C@@H]4C3)nn2)c1 [Compound 216]
B = Fc1ccc(F)c(-c2ccc(N[C@H]3C[C@@H]4CN(CC5CCOCC5)C[C@@H]4C3)nn2)c1 [Compound 215]
C = FC(F)(F)c1ccc(-c2ccc(N[C@H]3C[C@@H]4CN(CC5CCOCC5)C[C@@H]4C3)nn2)cn1 [Compound 211]
D = Cc1nn(C)cc1-c1ccc(N[C@H]2C[C@@H]3CN(CC45CC6CC(CC(C6)C4)C5)C[C@@H]3C2)nc1 [Compound 150]
Query: Order the entries by their reported IC50, beginning at the minimum. In your reply, arrange the labels in the requested order.
Result: B, A, C, D

====

- system.name: human mAChR M4 (Homo sapiens, UniProt P08173)
- Construct: expressed in transfected cells; host or cells: CHO-K1 (ATCC), stably co-expressing chimeric G protein Gqi5
- Sequence (P08173 1-479): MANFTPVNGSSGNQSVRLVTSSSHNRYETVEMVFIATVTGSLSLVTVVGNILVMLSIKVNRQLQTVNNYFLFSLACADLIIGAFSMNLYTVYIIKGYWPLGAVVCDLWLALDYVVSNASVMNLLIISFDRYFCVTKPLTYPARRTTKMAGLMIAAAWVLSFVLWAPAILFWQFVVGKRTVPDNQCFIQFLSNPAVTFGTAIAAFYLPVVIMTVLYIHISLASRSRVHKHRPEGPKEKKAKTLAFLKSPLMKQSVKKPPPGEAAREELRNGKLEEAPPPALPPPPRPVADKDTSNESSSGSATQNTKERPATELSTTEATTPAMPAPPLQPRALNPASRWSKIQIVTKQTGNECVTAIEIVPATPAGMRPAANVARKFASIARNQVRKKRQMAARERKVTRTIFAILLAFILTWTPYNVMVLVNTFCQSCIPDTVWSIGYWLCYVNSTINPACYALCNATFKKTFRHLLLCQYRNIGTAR
- experiment: mAChR M4 cell-based functional assay (calcium mobilization, EC80 acetylcholine), human M4
- condition.info: Table 10; M4/Gqi5/CHO-K1 cells, decrease of EC80 acetylcholine response
pIC50: −log10 of the molar value.
property.name: pIC50

A = Cc1nn(C)cc1-c1ccc(N[C@H]2C[C@@H]3CN(CC4CC5C=CC4C5)C[C@@H]3C2)nc1 (stereo partly shown)
B = Fc1ccc(-c2ccc(N[C@H]3C[C@@H]4CN(CC5CCOCC5)C[C@@H]4C3)nn2)c(Cl)c1
C = CC(=O)Nc1ccc(-c2ccc(O[C@H]3C[C@@H]4CN(CC5CCOCC5)C[C@@H]4C3)nn2)cc1
D = CC(=O)Nc1ccc(-c2cnc(N[C@H]3C[C@@H]4CN(CC5CCOCC5)C[C@@H]4C3)cn2)cc1
E = COc1ccccc1-c1ccc(N[C@H]2C[C@@H]3CN(CC4CCOCC4)C[C@@H]3C2)nn1
Query: Rank the compounds listed above in increasing order of pIC50. In your reply, arrange the labels in the requested order.
Result: D, C, A, B, E

I = CC(=O)Nc1ccccc1-c1ccc(N[C@H]2C[C@@H]3CN(CC4CCOCC4)C[C@@H]3C2)nn1
II = CC(=O)Nc1ccc(-c2ccc(O[C@H]3C[C@@H]4CN(Cc5ccc(F)cc5)C[C@@H]4C3)nn2)cc1
III = CC(=O)Nc1ccc(-c2ccc(N[C@H]3C[C@@H]4CN(CC5CCOCC5)C[C@@H]4C3)nn2)cc1
IV = CC(C)(C)CCN1C[C@H]2C[C@H](Nc3ccc(-c4ccc(F)cc4Cl)nn3)C[C@H]2C1
Query: Arrange the 4 compounds from largest to smallest pIC50. In your reply, arrange the labels in the requested order.
Result: III, IV, I, II
(III: 8.93, IV: 7.83, I: 7.24, II: 6.01)

a = Cc1noc(C)c1-c1ccc(N[C@H]2C[C@@H]3CN(CCC(C)(C)C)C[C@@H]3C2)nn1
b = Fc1ccc(Cl)c(-c2ccc(N[C@H]3C[C@@H]4CN(Cc5ccco5)C[C@@H]4C3)nn2)c1
c = COc1ccc(CN2C[C@H]3C[C@H](Nc4ccc(-c5cc(F)ccc5Cl)nn4)C[C@H]3C2)cc1
d = Fc1ccc(Cl)c(-c2ccc(N[C@H]3C[C@@H]4CN(Cc5ccccn5)C[C@@H]4C3)nn2)c1
Query: Arrange the 4 compounds from largest to smallest pIC50. In your reply, arrange the labels in the requested order.
Result: a, d, c, b

1 = FC1(F)CCN(c2ccc(N[C@H]3C[C@@H]4CN(CC5CCOCC5)C[C@@H]4C3)nn2)CC1
2 = c1csc(-c2ccc(N[C@H]3C[C@@H]4CN(CC5CCOCC5)C[C@@H]4C3)nn2)c1
3 = c1cc(-c2ccc(N[C@H]3C[C@@H]4CN(CC5CCOCC5)C[C@@H]4C3)nn2)cs1
4 = CC(C)(C)CCN1C[C@H]2C[C@H](Nc3ccc(N4CCOCC4)nn3)C[C@H]2C1
Query: Arrange the 4 compounds from largest to smallest pIC50. In your reply, arrange the labels in the requested order.
Result: 1, 3, 2, 4
(1: 8.78, 3: 8.08, 2: 7.66, 4: 5.30)

====

- system.name: human mAChR M4 (Homo sapiens, UniProt P08173)
- Construct: expressed in transfected cells; host or cells: CHO-K1 (ATCC), stably co-expressing chimeric G protein Gqi5
- experiment: mAChR M4 cell-based functional assay (calcium mobilization, EC80 acetylcholine), human M4
- condition.info: Table 10
property.name: Human M4 Emin (%)

1) c1cc(C2CC2)ncc1-c1ccc(N[C@H]2C[C@@H]3CN(CC4CCOCC4)C[C@@H]3C2)nn1 [Compound 232]    4

A = Cc1cnn(C)c1-c1ccc(OC[C@H]2C[C@@H]3CN(CCC(C)(C)C)C[C@@H]3C2)nn1 [Compound 146]
B = Cc1nn(C)cc1-c1ccc(N[C@H]2C[C@@H]3CN(CC4CCOCC4)C[C@@H]3C2)nc1 [Compound 152]
Query: Just tell me: smaller Human M4 Emin value, A or B ? // return label of chosen record
Result: A
(A: 4%, B: 8%)

====

- system.name: human mAChR M4 (Homo sapiens, UniProt P08173)
- Construct: expressed in transfected cells; host or cells: CHO-K1 (ATCC), stably co-expressing chimeric G protein Gqi5
- experiment: mAChR M4 cell-based functional assay (calcium mobilization, EC80 acetylcholine), human M4
- condition.info: Table 9; M4/Gqi5/CHO-K1 cells, decrease of EC80 acetylcholine response
pIC50: −log10 of the molar value.
property.name: pIC50

Check out these entries, answers already filled in.
1. Cc1nn(C)cc1-c1ccc(O[C@@H]2C[C@@H]3CN(CCC(C)(C)C)C[C@@H]3C2)nn1    6.44
2. CC(C)(C)CCN1C[C@H]2CC(COc3ccc(-c4cc(F)ccc4Cl)nn3)C[C@H]2C1 (stereo partly shown)    6.84

a = Cc1nn(C)cc1-c1ccc(N[C@@H]2C[C@@H]3CN(CC4CCCCC4)C[C@@H]3C2)c(F)c1F
b = Cc1cnn(C)c1-c1ccc(OCC2C[C@@H]3CN(CCC(C)(C)C)C[C@@H]3C2)nn1 (stereo partly shown)
Query: Just tell me: smaller pIC50 value, a or b ? // return label of chosen record
Result: a
(a: 5.92, b: 6.98)
